# protocolSummary: BET inhibitor-based combinations targeting novel dependencies in MECOM-rearranged (r) AML: OCI-AML3 cell line (AID 2202232); further: nearly all actives have a fitted effect of over 35% in size
# conditionSummary: CellTiter-Glo luminescence, 48 h; OCI-AML3 viability; series mostly up to 46 µM
Records with an inconclusive call do not appear. Activity calls are given as the source filed them. The call rests on the fitted dose curve; in most records, active means well fitted inhibition curve with a large enough effect; inconclusive means small, poorly fitted or top-dose-only effect; inactive means no such curve, though single readings can be large or run the other way.
Labels: active, inactive

INSERT INTO results (compound, qualitativelabel) VALUES
  ('C#Cc1cccc(Nc2ncnc3cc(OC)c(OCCCCCCC(=O)NO)cc23)c1', 'active'),
  ('CC(C)c1ccccc1Cc1cc(C(=O)Nc2ccc(S(=O)(=O)c3ccccc3C(C)(C)C)cc2)c(O)c(O)c1O', 'active'),
  ('CN(CCOc1ccc(NS(C)(=O)=O)cc1)CCc1ccc(NS(C)(=O)=O)cc1', 'inactive'),
  ('NCCS(=O)(=O)O', 'inactive'),
  ('CS(=O)(=O)c1cccc(CNc2nc(Nc3ccc4c(c3)CCC(=O)N4)ncc2C(F)(F)F)c1', 'active'),
  ('CCCN[C@H]1CCc2nc(N)sc2C1', 'inactive'),
  ('CC(C)c1nn(-c2c(Cl)cccc2Cl)c2nc(Cc3ccc(OCCO)cc3)[nH]c(=O)c12', 'active'),
  ('COC(=O)N1CCN(Cc2cccc(NC(=O)Nc3ccc(C)nc3)c2F)CC1', 'inactive'),
  ('Cc1cc(OCCCS(C)(=O)=O)cc(C)c1-c1cccc(COc2ccc3c(c2)OC[C@H]3CC(=O)O)c1', 'inactive'),
  ('O=C(O)c1cnn(-c2nc3cc(OC(F)(F)F)c(Cl)cc3[nH]2)c1', 'inactive'),
  ('Cc1cn2cc(C(=O)N(C)CCO)cc(N[C@@H]3CCOc4cccc(C)c43)c2n1', 'inactive'),
  ('Cc1cc([C@@H](C)Nc2ccccc2C(=O)O)c2nc(N3CCOCC3)cc(=O)n2c1', 'active'),
  ('COc1ccc(Cc2ccc(NC(N)=O)cc2)cc1-c1cccc(Cl)c1', 'inactive'),
  ('CC(C)(Sc1cc(C(C)(C)C)c(O)c(C(C)(C)C)c1)Sc1cc(C(C)(C)C)c(O)c(C(C)(C)C)c1', 'inactive'),
  ('CCOC(=O)c1ccnc(CNCC(=O)N(CC)CCN(C)C)c1', 'inactive'),
  ('OC[C@@H](O)[C@@H](O)[C@H](O)[C@@H](O)CO', 'inactive'),
  ('N#CNC(=NCCCCCCOc1ccc(Cl)cc1)Nc1ccncc1', 'active'),
  ('CC1=C(/C=C/C(C)=C/C=C/C(C)=C\C(=O)O)C(C)(C)CCC1', 'active'),
  ('CCC(C)SSc1ncc[nH]1 (stereo unspecified)', 'active'),
  ('CC1(C)CC(=O)c2c(C(F)(F)F)nn(-c3ccc(C(N)=O)c(NC4CCC(OC(=O)CN)CC4)c3)c2C1 (stereo unspecified)', 'active'),
  ('Cc1cnc(Nc2ccc(F)cc2Cl)nc1-c1c[nH]c(C(=O)N[C@H](CO)c2cccc(Cl)c2)c1', 'active');

----------
# protocolSummary: BET inhibitor-based combinations targeting novel dependencies in MECOM-rearranged (r) AML: MV-4-11 cell line (AID 2202233); further: nearly all actives have a fitted effect of over 45% in size
# conditionSummary: MV-4-11 AML viability, CellTiter-Glo luminescence, 48 h; series mostly up to 46 µM
Results filed as inconclusive are left out. Calls of active or inactive are those of the source. The call rests on the fitted dose curve; in most records, active means well fitted inhibition curve with a large enough effect; inconclusive means small, poorly fitted or top-dose-only effect; inactive means no such curve, though single readings can be large or run the other way.
Labels: active, inactive

INSERT INTO assay_data (compound, qualitativelabel) VALUES
  ('Cc1ccccc1C(C(=O)NC1CCCCC1)N(C(=O)CNc1ccc(C#N)cc1)c1cccc(F)c1 (centres undefined)', 'inactive'),
  ('COc1ccc(-n2c(C)c([N+](=O)[O-])c3ccc(O)cc32)cc1', 'active'),
  ('CN[C@H](CC(C)C)C(=O)N[C@H]1C(=O)N[C@@H](CC(N)=O)C(=O)N[C@H]2C(=O)N[C@H]3C(=O)N[C@H](C(=O)N[C@H](C(=O)O)c4cc(O)cc(O)c4-c4cc3ccc4O)[C@H](O)c3ccc(c(Cl)c3)Oc3cc2cc(c3O[C@@H]2O[C@H](CO)[C@@H](O)[C@H](O)[C@H]2O[C@H]2C[C@](C)(N)[C@H](O)[C@H](C)O2)Oc2ccc(cc2Cl)[C@H]1O', 'inactive'),
  ('Nc1ncnc2c1ncn2[C@@H]1O[C@H](CO)[C@@H](O)[C@@H]1O', 'inactive'),
  ('CCc1nc(-c2cccc(C)c2)c(-c2ccnc(NC(=O)c3ccccc3)c2)s1', 'active'),
  ('C[C@@H]1O[C@@H](O[C@@H]2\C=C/C=C\C=C/C=C\C[C@H](C)OC(=O)/C=C\[C@H]3O[C@@H]3C[C@H](O)C[C@]3(O)C[C@@H](O)[C@@H](C(=O)O)[C@H](C2)O3)[C@H](O)[C@H](N)[C@@H]1O', 'inactive'),
  ('O=C1NCCc2[nH]c(-c3ccncc3)cc21', 'active'),
  ('COc1c(N2CCNC(C)C2)c(F)cc2c(=O)c(C(=O)O)cn(C3CC3)c12 (centres undefined)', 'inactive'),
  ('O=C(Nc1c(Cl)cncc1Cl)c1ccc(OC(F)F)c(OCC2CC2)c1', 'inactive');

The reported measurements were obtained from PubChem BioAssay (NCATS).
